Assay: plasma pamiparib pharmacokinetics in patients (LC‐MS/MS)
Format: in vivo, human
Settings: human, plasma, po, 60 mg, single oral 60 mg/100 μCi, n = 4, read-out: Cmax, geometric mean (CV%)
recorded endpoint: Cmax

Please look at this compound and report its Cmax: C[C@]12CCCN1CC1=NNC(=O)c3cc(F)cc4[nH]c2c1c34 [Pamiparib]
2190 ng/mL

---

Test: metabolic stability in human liver microsomes
Assay type: in vitro ADME
Details: human, pooled human liver microsomes; 1 μM, 0.5 mg/mL HLM, NADPH; read-out: intrinsic clearance in HLM
recorded endpoint: microsomal CLint at 1 μM (µL/min/mg)
Your answer is read as µL/min/mg, so omit the unit and give the number.

Please look at this compound and report its microsomal CLint at 1 μM: C[C@]12CCCN1CC1=NNC(=O)c3cc(F)cc4[nH]c2c1c34 [Pamiparib]
7.9

---

Test: plasma pamiparib pharmacokinetics in patients (LC‐MS/MS)
Format: in vivo, human
Conditions: human, plasma, po, 60 mg, single oral 60 mg/100 μCi, n = 4, read-out: t1/2, geometric mean (CV%) (converted)
recorded endpoint: half-life (h)
Your answer is read as h, so omit the unit and give the number.

Please look at this compound and report its half-life: C[C@]12CCCN1CC1=NNC(=O)c3cc(F)cc4[nH]c2c1c34
28.7

---

Assay: metabolic stability in human liver microsomes
Assay type: in vitro ADME
Settings: human, pooled human liver microsomes; 1 μM, 0.5 mg/mL HLM, NADPH
recorded endpoint: half-life at 1 μM (h)
Your answer is read as h, so omit the unit and give the number.

Please look at this compound and report its half-life at 1 μM: C[C@]12CCCN1CC1=NNC(=O)c3cc(F)cc4[nH]c2c1c34 [Pamiparib]
3
